Tested on: MS2 coat protein
experimentNotes: apparent KD of MS2 coat protein; designed switch direction (-1 OFF switch, 1 ON switch): 1; higher = weaker reporter binding
measurementContext: input ligand: none
assayReadout: apparent KD of MS2 coat protein (µM)

>>> testvalue("UGAAUAGUGAUAGGAUAUACAUGAGGAAUCCUCGUAGAAGGAUCACGACAUGAGGAUCACCCAUGUAGCCGUCAGAAGACGGCA [Mat - Same State NG 1 - JL mod - D60] (Eterna round: R96, puzzle: Same State NG 1)")
2.61
>>> testvalue("AGGCUCAGACGAGGAUAUACGUGGUCACAUGAGGAUCACCCAUGUCUCGAGCUUCGGCUCGAGGCGUAGAAGGUGUCUGAGCCA [SSNG2/6-C1] (Eterna round: R96, puzzle: Same State NG 2)")
0.609
>>> testvalue("AGAUGUUAAUCAGGAUAUGGGCACAUGAGGAUCACCCAUGUAACGUAGAUACGAUGUGGUCAAGUCUAGAAGGGAUAGCUAACA [SameState NG2 #78] (Eterna round: R96, puzzle: Same State NG 2)")
0.0659
>>> testvalue("AUUAUUUAUGCAGGAUAUGAUUAACAUGAGGAUCACCCAUGUGGUGUUGUGAGUAAGGAGAGUGAUCAGAAGGGCAGUUUUUUU [JMF's solution 43] (Eterna round: R96, puzzle: Same State NG 2)")
0.406

###

Tested on: MS2 coat protein
experimentNotes: apparent KD of MS2 coat protein; designed switch direction (-1 OFF switch, 1 ON switch): -1; higher = weaker reporter binding
measurementContext: input ligand: none
A collection of sequences and their measured apparent KD of MS2 coat protein
assayReadout: apparent KD of MS2 coat protein (µM)

>>> testvalue("GGUCAGAUGGUAGGAUAUCUAUAUCGAGUGACCCUUUCAUAACAUGAGGAUCACCCAUGUCGGUGGGAGAAGGGCCGUACGGCG [salish99_ExNG02_R04_012] (Eterna round: R96, puzzle: Exclusion NG 2)")
0.0402
>>> testvalue("GGGAGGAGAGUGAGGAUAUUCGAGGGAGGGAGGGUGAAGAAGGCACAUGAGGAUCACCCAUGUGGUGGGAGGUU [RHig 1] (Eterna round: R97, puzzle: Brourd's mod of Exclusion 4)")
0.0383
>>> testvalue("GAUUAACAUGAGGAUCACCCAUGUGAGGAUAUGGACUUGCCCACUUUCCCAUUAGAGUCUAGAAGGCGCAUCUG [1986#24] (Eterna round: R97, puzzle: Exclusion 1)")
0.0379

###

Test system: K4 kissing-loop RNA reporter;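 note: bound reporter read as fluorescence of individual clusters on recovered sequencing chips by microscopy, with normalized cluster intensities fitted with a binding model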
experimentNotes: apparent KD of K4 kissing-loop reporter; higher = weaker reporter binding
measurementContext: Eterna round: R107; input ligand: arginine 13.2 mM
assayReadout: apparent KD of K4 kissing-loop reporter (nM)

>>> testvalue("AGCGGCCAGUCGGCCGCCACUCCAGGCAGUGAUGUUGCUAAGUUUCUACUAGAGUGAUGUUCUAAGAGGACCGGGACUGACGUAU [Exclusion Tryptophan B Gf 8]")
225
>>> testvalue("UGGCGAGUGAUGUUCGUUGUUGUAGUGUGUCGAGGACCGGUACGGCCGCCACUCGGGUUGGUUGUUGUUGUUGUUGUUGUUGUUG [First Shot]")
187
>>> testvalue("UGGACAUGACUCGAUAAGAGUCAAUGGGAUACCAGUGACGAAAGUCACCCUUGGCAGCUCAACUGCCAGUGAUGUUGGUAGUCCU [Astros-Elimod]")
119
>>> testvalue("AUAGGAGUGAUGUUCCUUAGUCUCUCCGAUACCAGUAUGGAAACAUACCCUUGGCAGCGGUAGACCGCAGAUUAGGAAACUAGUC [Theophylline A K4 3]")
726
>>> testvalue("AGGUCAGCAGGAAGGAGCGCCCUGACAGGUUGCUGCCGUGGGCAGUGAUGUUGCUCAGUCCGGCAGGUAGGUCGCCUGCUGACCU")
157
>>> testvalue("AAAAUAAACCAGUGAUGUUGGUGUCCAGAUACCAGCGAUAAUAAUCGCCCUUGGCAGCUGCGGACGUACAAAAUAAGUACGUCCU [MatMod 11 - Jieux - Same State - Theophylline A]")
351
>>> testvalue("GCAGUGAUGUUGCAACCGCGUACGAUGCCUCGAGGACCGGUACGGCCGCCACUCGUCCUGGUUCAGGAGCUACAGACAUAGCUCA [theeternabot_sameState_KL_Trp_A_2]")
271
>>> testvalue("CGCAGUGAUGUUGCGAGUAGAUACAGGGAAGGAGCGCCGUAGUAGGCAGGUAGGUCGCCCACGCAGUGAUGUUGCGUCAUAGGGU [Exclusion Arginine A GF 5]")
91.8
>>> testvalue("AUGUAUGAAUUAGGAUAUCGUUAGCCUUUCAUAUAUAUGAUAAAUGGAUAUGUCGUAGUGAUGUUACGAGAAGGAGUGUGGAGUA [KL-XFMN-B8]")
52.9
>>> testvalue("AUUUUUUUGUCAGGAUAUUAGUGUGCGUUUGGUUUGUUAGUGAUGUUGAUAUUUUGUUUAUGUAUUUAAGAAGGGAUUUAGCGGU [aaeatemullin]")
436
>>> testvalue("CAUAGGAAACUAUGUUUCUCUCUGACUGAAGGAGCGCGUGAAAACGCAGGUAGGUCGCAGAAUUUAACAGAGAGUGAUGUUCUCA [Ex Arginine A K4 12]")
396
>>> testvalue("CUUGAUGGAAACAUCGAGUAGAUUACUGAUACCAGUAUCGAUAGAUACCCUUGGCAGCAGAAUCAGUGAUCACGAGUGAUGUUCG [Ex Theophylline A K4 8]")
441
>>> testvalue("AUCUAUGAGCGAGGAUAUGCAUGACGCGAGUGAUGUUCGCGAUGUGGGCGUGAUUAGUAAUAUGAAGCAGAAGGCGCACUCAUGA [Exclusion - FMW B / A]")
111
>>> testvalue("CGCAAGCAGCCAGUGAUGUUGGCCGCCUUGCGAGGACCGGUACGGCCGCCACUCGAAGGCGGCUACUGGUAAACCGCCUAACGGA [Onzaenla]")
83.6
>>> testvalue("ACUCUUGCGUAUGAUACCAGCUUGUACCGCCACAUAUAUUCUAAGAGUUGAGUGAUGUUUAGCCCUUGGCAGCAUACUUGUGCGU [theeternabot_exclusion_KL_Theo_B_42]")
546
>>> testvalue("GGUAUCCAGUACCAUUGCGUUAAAACAGAAGGAGCGAGUAUGGACUCAGGUAGGUCGCUGUUUAUAGUCGAGUGAUGUUCGAAUC [Same State Arginine A GF 15]")
280
>>> testvalue("UGUGUUUACCUGACUCAGUGAUGUUGAGAAGGAGCGUGAGAAAUCACAGGUAGGUCGCUCAACCUAAAUUCAGGUGAGCACUAAA")
197
>>> testvalue("GUGACGCGGACGGCCGCCACUCCGGUGACCGCUCCGUGCCGCCCUGCGCGAGUGAUGUUCGCCAGGAGGACCGGGUCCGACUUUA [Soesente]")
101
>>> testvalue("CAUACGCAUGGAGGAUAUGGGAUUUCUCAUAUUAACCUGUAUCAGGUAUCUCAGUGAUGUUGAGACUCAGAAGGCCAUGUGUAUG [Ex FMN B 25]")
303
>>> testvalue("AGAGUUAAUUAGUCUUUUUUAACAUUAAGUCAGGAUAUCGUAUAUUCGAGAAGGGACACAUGCUAGUGAUGUUAGCUAUUUCUCA [JR_ExcFMNA_Sub018]")
90.5
>>> testvalue("AUUAAUAACAGAGGAUAUGCAUUUUUAUUAUUUUUUAUUAUUAUAUGCAGUGAUGUUGCAUAUUAAGCAGAAGGCUGAUUUAUUU [JR_SSFMNB_Sub013]")
105
>>> testvalue("UGUCAUUGGUCGGCCGCCACUUCAUAAAGAGUGAUGUUCUUAAAGACGGAUCGAAAGAUCUGUCGAAGGACCGGGACCGAUGACU [FiskerMod 8 - Jieux - Same State - Tryptophan B]")
1080
>>> testvalue("GAGCCAGAAGUUGCUGCGGGUUUCAGAGAUACCAGCCGUAUUGUAGGCCCUUGGCAGCUCGAGUGAUGUUCGAGCCGCUUCUAGC [Inma]")
95.4
>>> testvalue("AGUGUUAGGUUAGAUACCAGCCGUCUGUGGAUAAUCCUCAGACCGCCAGUGAUGUUGGCAGGCCCUUGGCAGCUAACAGGACAGA [Mavebius]")
268

###

System: MS2 coat protein
experimentNotes: apparent KD of MS2 coat protein; designed switch direction (-1 OFF switch, 1 ON switch): -1; higher = weaker reporter binding
measurementContext: input ligand: none
Think of 30 nM as a floor: if apparent KD of MS2 coat protein stands on it or above, it is yes; beneath it, no.

>>> class("UUCCUACAUGAGGAUCACCCAUGUGAGGAUAUGCAUCGUAUUAUUCUCGUAUGUAGUAGCAGAAGGCGCAUUGG [Starry Exclusion 1.1] (Eterna round: R96, puzzle: Exclusion 1)")
"no"
>>> class("CACACACAUGAGGAUCACCCAUGUCAGGAUAUCGACACACACCCACACAAACAAACCACGAGAAGGGACGGCCA [E4 1] (Eterna round: R97, puzzle: Exclusion 1)")
"yes"
>>> class("AUAUACGGAGGAUAUACUUGAGGAUCACCCAAGUGGGAUCCCGUUUGGGCGGUAAAUAGUAGAAGGCCGACCCA [jl-ex3-4.41 ViennaUCT mod] (Eterna round: R97, puzzle: Exclusion 3)")
"no"
>>> class("AUGGGACAUGAGGAUCACCCAUGUCAGGAUAUGCUCUGAUGCGGCGUACGCCGUGCUAGCAGAAGGGACUACCU [EX1 C.19] (Eterna round: R97, puzzle: Exclusion 1)")
"no"
>>> class("AAAAGUCUUUAGGAUAUGUGCGAUUAAUAUCGUGCAGAAGGAAGGACAUGAGGAUCACCCAUGUUGAAGACAAC [Omei Ex6 A19] (Eterna round: R97, puzzle: Exclusion 6)")
"no"
>>> class("GGUCUUCAAGUCAGGAUAUCGUCUAGUCGGUCUGGCGAGAAGGGACAUGAGGAUCACCCAUGUCGUCUCAUCAG [Ex4 #14] (Eterna round: R97, puzzle: Brourd's mod of Exclusion 4)")
"no"
>>> class("UUUUUUUAUGAAGGAUAUACUUAACAUGAGGAUCACCCAUGUGGUGUUGUGAGUGAGUGAGUUUAGUAGAAGGUCAAUUAUUUU [JMF's solution 23] (Eterna round: R96, puzzle: Exclusion NG 2)")
"yes"
>>> class("GGUACUCAAAGAGUACCAAUACGAACAUGAGGAUCACCCAUGUAGGAUAUGCUACUCAAAGAGUAGCAGAAGGACAUGAACCCU [Far Half Aptamer v7] (Eterna round: R96, puzzle: Exclusion NG 3)")
"yes"
>>> class("GUGGGUUACAUGAGGAUCACCCAUGUAGAGUGGGAAGAGAGAUAGGAUAUGAUGUGAGAAUUAUAUUAGAAGGAUCGAGACUCG [AK ExNG3-2.5] (Eterna round: R96, puzzle: Exclusion NG 3)")
"yes"
